# EXPERIMENTAL SETUP: in water, 288.5 K
QUANTITY: solubility (mole fraction)

Ask | Look at this compound and give its reported solubility (mole fraction). Cc1nc2cc(N)ccc2s1
Reply | 0.000191

###

# EXPERIMENTAL SETUP: in water, 323.5 K
QUANTITY: solubility (mole fraction)
Note: the reply should be a number with no unit written.

Ask | Look at this compound and give its reported solubility (mole fraction). Cc1nc2cc(N)ccc2s1
Reply | 0.000937

###

# EXPERIMENTAL SETUP: in ethanol, 328.5 K
QUANTITY: solubility (mole fraction)
Note: the reply should be a number with no unit written.

Ask | Look at this compound and give its reported solubility (mole fraction). Cc1nc2cc(N)ccc2s1
Reply | 0.00284

###

# EXPERIMENTAL SETUP: in water, 318.5 K
QUANTITY: solubility (mole fraction)
Note: the reply should be a number with no unit written.

Ask | Look at this compound and give its reported solubility (mole fraction). Cc1nc2cc(N)ccc2s1
Reply | 0.000872

###

# EXPERIMENTAL SETUP: in ethanol, 303.5 K
QUANTITY: solubility (mole fraction)
Note: the reply should be a number with no unit written.

Ask | Look at this molecule and give its reported solubility (mole fraction). Cc1nc2cc(N)ccc2s1
Reply | 0.00164

###

# EXPERIMENTAL SETUP: in water, 298.5 K
QUANTITY: solubility (mole fraction)
Note: the reply should be a number with no unit written.

Ask | Look at this molecule and give its reported solubility (mole fraction). Cc1nc2cc(N)ccc2s1
Reply | 0.000311

###

# EXPERIMENTAL SETUP: in water, 308.5 K
QUANTITY: solubility (mole fraction)

Ask | Look at this molecule and give its reported solubility (mole fraction). Cc1nc2cc(N)ccc2s1
Reply | 0.000534

###

# EXPERIMENTAL SETUP: in ethanol, 288.5 K
QUANTITY: solubility (mole fraction)

Ask | Look at this compound and give its reported solubility (mole fraction). Cc1nc2cc(N)ccc2s1
Reply | 0.00125

###

# EXPERIMENTAL SETUP: in ethanol, 323.5 K
QUANTITY: solubility (mole fraction)
Note: the reply should be a number with no unit written.

Ask | Look at this molecule and give its reported solubility (mole fraction). Cc1nc2cc(N)ccc2s1
Reply | 0.00253

###

# EXPERIMENTAL SETUP: in ethanol, 313.5 K
QUANTITY: solubility (mole fraction)
Note: the reply should be a number with no unit written.

Ask | Look at this molecule and give its reported solubility (mole fraction). Cc1nc2cc(N)ccc2s1
Reply | 0.00194

###

# EXPERIMENTAL SETUP: in water, 303.5 K
QUANTITY: solubility (mole fraction)
Note: the reply should be a number with no unit written.

Ask | Look at this compound and give its reported solubility (mole fraction). Cc1nc2cc(N)ccc2s1
Reply | 0.000491

###

# EXPERIMENTAL SETUP: in water, 293.5 K
QUANTITY: solubility (mole fraction)
Note: the reply should be a number with no unit written.

Ask | Look at this compound and give its reported solubility (mole fraction). Cc1nc2cc(N)ccc2s1
Reply | 0.000269

###

# EXPERIMENTAL SETUP: in ethanol, 293.5 K
QUANTITY: solubility (mole fraction)

Ask | Look at this molecule and give its reported solubility (mole fraction). Cc1nc2cc(N)ccc2s1
Reply | 0.00129
